From: paper PMC6628017

- assay_target: T2R4 (Homo sapiens, UniProt Q9NYW5)
- Sequence (Q9NYW5 1-299): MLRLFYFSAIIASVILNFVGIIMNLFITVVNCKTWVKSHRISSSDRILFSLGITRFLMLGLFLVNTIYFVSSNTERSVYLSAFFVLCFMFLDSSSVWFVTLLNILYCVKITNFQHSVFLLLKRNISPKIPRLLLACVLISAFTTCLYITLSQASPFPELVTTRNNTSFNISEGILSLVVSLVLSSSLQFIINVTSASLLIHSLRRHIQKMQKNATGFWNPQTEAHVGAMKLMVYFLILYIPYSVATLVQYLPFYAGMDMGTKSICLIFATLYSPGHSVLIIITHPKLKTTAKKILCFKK
- method_summary: Calcium mobilization assay, HEK293T cells stably expressing T2R4
- Assay type: cell-based
- setup_conditions: 3–200 μM AGE with quinine 1 mM; ± standard deviation; read-out: IC50, inhibition of quinine-activated T2R4 calcium mobilization
measurement_label: IC50 (µM)

compound="N[C@@H](CCCCNCC(=O)O)C(=O)O [CML, Nε-Carboxymethyl-L-lysine]" unit_of_measure=µM recorded_measurement=32.6
compound="NC(CCCCn1cc[n+](CCCCC(N)C(=O)O)c1)C(=O)O (centres unmarked) [GOLD, glyoxal-derived lysine dimer]" unit_of_measure=µM recorded_measurement=10.5
